PROTOCOL SUMMARY: Clearance in Beagle dog at 2 mg/kg, iv or 3 mg/kg, po
Assay type: ADME, organism-based, Canis lupus familiaris
TEST CONDITIONS: in vivo
MEASURE: clearance (mL/min/kg)
State the answer as a number, implicitly in mL/min/kg.

### Prompt What clearance value was documented for this compound, "O=C(O)C1CN(Cc2ccc(-c3cc4cc(Cc5ccccc5)ccc4o3)c(F)c2)C1" ?
### Response 4.43

---

PROTOCOL SUMMARY: Clearance in Sprague-Dawley rat at 1 mg/kg, iv or 3 mg/kg, po
Format: ADME, organism-based
TEST CONDITIONS: in vivo
MEASURE: clearance (mL/min/kg)
Write the number in mL/min/kg without appending the unit.

### Prompt Sample "O=C(O)C1CN(Cc2ccc(-c3cc4cc(Cc5ccccc5)ccc4o3)c(F)c2)C1" — what was its clearance?
### Response 2.3

---

PROTOCOL SUMMARY: Volume of distribution at steady state in Sprague-Dawley rat at 1 mg/kg, iv or 3 mg/kg, po
Type: ADME, organism-based
TEST CONDITIONS: in vivo, read-out: Vdss
MEASURE: Vd

### Prompt Which Vd value belongs to "O=C(O)C1CN(Cc2ccc(-c3cc4cc(Cc5ccccc5)ccc4o3)c(F)c2)C1" ?
### Response 1.7 L/kg

---

SYSTEM UNDER TEST: Voltage-gated inwardly rectifying potassium channel KCNH2 (Homo sapiens)
Sequence (Q12809 whole entry): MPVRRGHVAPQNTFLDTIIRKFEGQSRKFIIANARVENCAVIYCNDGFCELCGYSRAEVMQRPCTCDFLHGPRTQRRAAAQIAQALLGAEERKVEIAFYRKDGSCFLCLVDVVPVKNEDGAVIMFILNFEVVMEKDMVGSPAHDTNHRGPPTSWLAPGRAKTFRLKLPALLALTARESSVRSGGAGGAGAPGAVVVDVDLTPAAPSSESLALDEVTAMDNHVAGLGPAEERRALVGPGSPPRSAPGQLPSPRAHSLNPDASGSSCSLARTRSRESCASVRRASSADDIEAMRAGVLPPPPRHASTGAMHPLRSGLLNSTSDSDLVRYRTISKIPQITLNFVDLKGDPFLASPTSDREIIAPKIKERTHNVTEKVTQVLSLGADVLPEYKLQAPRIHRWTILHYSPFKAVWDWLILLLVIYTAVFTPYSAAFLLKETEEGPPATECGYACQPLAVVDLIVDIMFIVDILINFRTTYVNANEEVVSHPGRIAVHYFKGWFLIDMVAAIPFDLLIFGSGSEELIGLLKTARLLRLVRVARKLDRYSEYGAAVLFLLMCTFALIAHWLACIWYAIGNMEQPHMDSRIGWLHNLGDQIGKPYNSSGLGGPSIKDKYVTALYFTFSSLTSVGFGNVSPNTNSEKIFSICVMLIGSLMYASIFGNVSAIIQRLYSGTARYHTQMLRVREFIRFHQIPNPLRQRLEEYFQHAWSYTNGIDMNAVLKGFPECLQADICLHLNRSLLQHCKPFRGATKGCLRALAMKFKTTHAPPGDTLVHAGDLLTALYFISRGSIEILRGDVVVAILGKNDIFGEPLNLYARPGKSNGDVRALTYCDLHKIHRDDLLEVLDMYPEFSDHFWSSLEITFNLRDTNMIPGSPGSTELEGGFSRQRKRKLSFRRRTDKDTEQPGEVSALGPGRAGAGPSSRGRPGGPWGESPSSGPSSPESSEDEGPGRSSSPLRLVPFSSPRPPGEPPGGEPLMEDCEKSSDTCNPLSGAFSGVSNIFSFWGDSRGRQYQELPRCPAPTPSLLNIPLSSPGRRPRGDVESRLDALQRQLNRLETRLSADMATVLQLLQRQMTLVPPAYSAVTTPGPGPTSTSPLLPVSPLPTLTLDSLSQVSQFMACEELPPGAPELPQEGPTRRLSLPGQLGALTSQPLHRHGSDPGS
PROTOCOL SUMMARY: Inhibition of human ERG by patch-clamp method
MEASURE: pIC50
Remember the convention: pIC50 equals -log10 of concentration in molar.

### Prompt Name the recorded pIC50 for "O=C(O)C1CN(Cc2ccc(-c3cc4cc(Cc5ccccc5)ccc4o3)c(F)c2)C1" .
### Response 4.77

---

SYSTEM UNDER TEST: Sphingosine 1-phosphate receptor 1 (Homo sapiens, UniProt P21453)
Sequence (P21453 whole entry): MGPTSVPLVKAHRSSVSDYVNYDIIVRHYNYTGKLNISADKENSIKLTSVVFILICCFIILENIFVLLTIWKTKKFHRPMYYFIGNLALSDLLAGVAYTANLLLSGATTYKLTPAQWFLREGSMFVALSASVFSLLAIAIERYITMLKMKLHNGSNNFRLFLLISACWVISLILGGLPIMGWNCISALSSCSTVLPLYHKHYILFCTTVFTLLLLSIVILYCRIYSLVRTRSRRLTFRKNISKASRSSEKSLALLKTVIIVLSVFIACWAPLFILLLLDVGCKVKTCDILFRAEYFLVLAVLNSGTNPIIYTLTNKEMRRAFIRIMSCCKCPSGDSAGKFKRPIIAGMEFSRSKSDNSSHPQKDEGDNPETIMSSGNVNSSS
PROTOCOL SUMMARY: Induction of human GFP-tagged chimeric S1P1R internalization in human U2Os cells by fluorescence microscopy
Assay type: cell-based
MEASURE: pEC50
Bear in mind: pEC50 is minus log10 of a mol/L concentration; give just that figure.

### Prompt Query (compound): "O=C(O)C1CN(Cc2ccc(-c3cc4cc(N5CCCCC5)ccc4o3)cc2)C1" ; field requested: pEC50
### Response 6.21

### Prompt Tell me the measured pEC50 of "O=C(O)C1CN(Cc2ccc(-c3cc4cc(OCC5CC5)ccc4o3)c(F)c2)C1" , please.
### Response 6.54

### Prompt What does the record list as pEC50 for "O=C(O)C1CN(Cc2ccc(-c3cc4cc(Cc5ccccc5)ccc4o3)cc2)C1" ?
### Response 5.68

### Prompt What value of measured pEC50 is listed for "CCCCOc1ccc2oc(-c3ccc(CN4CC(C(=O)O)C4)cc3Cl)cc2c1" ?
### Response 6.80

### Prompt Requested read-out: pEC50. Entry: "O=C(O)C1CN(Cc2ccc(-c3cc4cc(OCC5CCCC5)ccc4o3)c(F)c2)C1"
### Response 6.34

### Prompt Please give the measured pEC50 for this compound: "O=C(O)C1CN(Cc2ccc(-c3cc4cc(Cc5ccccc5)ccc4o3)c(F)c2)C1"
### Response 7.24

---

PROTOCOL SUMMARY: Mean residence time in cynomolgus monkey at 1 mg/kg, iv or 5 mg/kg, po
Type: ADME, organism-based, Macaca fascicularis
TEST CONDITIONS: in vivo
MEASURE: MRT

### Prompt Requested read-out: MRT. Entry: "O=C(O)C1CN(Cc2ccc(-c3cc4cc(Cc5ccccc5)ccc4o3)c(F)c2)C1"
### Response 3.4 h
